Origin of values: paper PMC3000476

Molecular target: PAT2 (Rattus norvegicus, UniProt Q8K415)
Construct: gene Slc36a2
Sequence (Q8K415 whole entry): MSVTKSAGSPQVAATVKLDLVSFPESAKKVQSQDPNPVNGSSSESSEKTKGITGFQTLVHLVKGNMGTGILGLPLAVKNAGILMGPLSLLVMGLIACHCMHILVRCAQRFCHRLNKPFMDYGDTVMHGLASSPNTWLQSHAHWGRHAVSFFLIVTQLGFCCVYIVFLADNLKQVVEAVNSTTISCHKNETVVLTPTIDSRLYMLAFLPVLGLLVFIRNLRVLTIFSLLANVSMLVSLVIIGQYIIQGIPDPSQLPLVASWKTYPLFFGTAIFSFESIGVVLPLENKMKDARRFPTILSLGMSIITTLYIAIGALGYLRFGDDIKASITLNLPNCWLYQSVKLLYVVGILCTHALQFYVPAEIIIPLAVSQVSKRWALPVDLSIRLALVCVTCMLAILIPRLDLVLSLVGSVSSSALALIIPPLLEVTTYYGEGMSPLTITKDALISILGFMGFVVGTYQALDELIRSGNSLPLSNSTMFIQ
Assay: competition with L-[3H]proline uptake in PAT2-expressing Xenopus oocytes; TEVC
Format: cell-based
measuredQuantity: pIC50
Interpret pIC50 as the negative base-10 log of the concentration measured in mol/L.

### Prompt Write pIC50 of O=C(O)[C@H]1NCC[C@@H]1O [T3HP, trans-3-hydroxy-L-proline] ; system used: PAT2 (Rattus norvegicus, UniProt Q8K415)
### Response 1.88

###

Target: PAT2 (Rattus norvegicus)
Construct: gene Slc36a2
Assay: competition with L-[3H]proline uptake in PAT2-expressing Xenopus oocytes
Type: cell-based
measuredQuantity: pIC50
Interpret pIC50 as the negative base-10 log of the concentration measured in mol/L.

### Prompt Provide one value: measured pIC50 of O=C(O)[C@@H]1C[C@@H](O)CN1 [T4HP, trans-4-hydroxy-L-proline]
### Response 3.15

###

Target: PAT2 (Rattus norvegicus, UniProt Q8K415)
Construct: gene Slc36a2
Assay: inhibition of L-proline-induced current (TEVC) in PAT2-expressing oocytes; also uptake inhibition IC50 […]
Format: cell-based
measuredQuantity: IC50 (µM)
Unit µM implied. Number only.

### Prompt Provide one value: measured IC50 of CC(N)(Cc1c[nH]c2ccccc12)C(=O)O (racemic) [Me-Trp, α-methyl-D,L-tryptophan]
### Response 2700
